- target system: Importin α7ΔIBB (residues 73–536) (human, UniProt O60684 73-536)
- Sequence (O60684 73-536, stated change not applied): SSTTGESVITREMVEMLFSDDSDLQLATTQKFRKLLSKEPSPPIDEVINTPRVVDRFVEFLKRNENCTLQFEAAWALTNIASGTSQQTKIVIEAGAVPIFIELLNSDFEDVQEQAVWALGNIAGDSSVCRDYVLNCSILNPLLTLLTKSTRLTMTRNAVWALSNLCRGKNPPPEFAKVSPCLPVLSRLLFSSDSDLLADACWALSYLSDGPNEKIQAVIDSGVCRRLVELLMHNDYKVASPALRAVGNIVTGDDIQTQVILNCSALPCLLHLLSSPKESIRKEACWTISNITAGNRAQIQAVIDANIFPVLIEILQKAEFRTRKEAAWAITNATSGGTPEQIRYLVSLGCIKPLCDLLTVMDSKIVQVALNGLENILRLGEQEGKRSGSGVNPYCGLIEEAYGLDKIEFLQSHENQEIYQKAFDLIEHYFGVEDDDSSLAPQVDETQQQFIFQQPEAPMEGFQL
- test protocol: ELISA
- test parameters: both partners purified
Below, each of the binders is paired with its reported Kd value.
observable: Kd

>>> endpoint_value("RNIHLLGRKTCLGRRVVQPGMFEDHPPTKKARVSMRRMSN (domain or fragment) [GST-NiV W (C-terminal NLS domain of Nipah virus W protein, residues 411–450, GST fusion)]")
"1100 nM"
>>> endpoint_value("RSLNMLGRKTCLGRRVVQPGMFADYPPTKKARVLLRRMSN (domain or fragment) [GST-HeV W (C-terminal NLS domain of Hendra virus W protein, residues 409–448, GST fusion)]")
"1500 nM"

The measurements presented in this section are drawn from paper PMC6135763.
